Some binders, each annotated with its measured % Blocking.
biological target: T1, human CCR8 (human, UniProt P51685 1-355); test: flow blocking, PBMC CCR8+CD4+; competitor PE-AB11
T1 construct: Native CCR8 on human PBMC (CCR8+ CD3+ or CCR8+ CD4+ lymphocytes); also called chemokine (C-C motif) receptor 8
T1 sequence (P51685 whole entry): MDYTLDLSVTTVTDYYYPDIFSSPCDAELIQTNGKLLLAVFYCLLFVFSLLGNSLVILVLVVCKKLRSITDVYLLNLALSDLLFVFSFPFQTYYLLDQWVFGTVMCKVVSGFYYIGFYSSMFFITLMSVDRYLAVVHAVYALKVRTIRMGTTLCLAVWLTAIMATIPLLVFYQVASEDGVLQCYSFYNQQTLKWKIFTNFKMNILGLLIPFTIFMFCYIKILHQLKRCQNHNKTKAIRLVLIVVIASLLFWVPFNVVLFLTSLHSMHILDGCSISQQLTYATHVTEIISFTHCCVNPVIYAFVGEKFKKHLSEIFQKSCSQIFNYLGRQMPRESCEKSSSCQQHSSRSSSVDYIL
Answer with the number, then the unit.

Below, each entry is followed by its recorded % Blocking result.
>>> measurement("AB14 (antibody, V domains shown, Hybridoma monoclonal; Same VH/VL entries as AB15; also called antibody 14; clone 14) VH: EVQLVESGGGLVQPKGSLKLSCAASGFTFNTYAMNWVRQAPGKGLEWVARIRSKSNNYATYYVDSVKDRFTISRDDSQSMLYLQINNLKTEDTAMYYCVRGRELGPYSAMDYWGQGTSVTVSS VL: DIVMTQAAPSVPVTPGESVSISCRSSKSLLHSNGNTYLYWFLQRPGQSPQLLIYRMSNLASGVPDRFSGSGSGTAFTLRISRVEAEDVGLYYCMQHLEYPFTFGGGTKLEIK")
"98.5%"
>>> measurement("AB8 (antibody, V domains shown, Hybridoma monoclonal; also called antibody 8; clone 8) VH: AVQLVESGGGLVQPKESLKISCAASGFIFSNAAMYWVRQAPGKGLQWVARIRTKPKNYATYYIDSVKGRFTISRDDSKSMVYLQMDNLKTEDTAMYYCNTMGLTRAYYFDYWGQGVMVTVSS VL: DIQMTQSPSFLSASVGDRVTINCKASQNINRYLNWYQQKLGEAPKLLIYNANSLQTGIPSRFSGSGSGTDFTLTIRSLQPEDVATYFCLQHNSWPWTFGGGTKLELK")
"98.5%"

Now look at this entry.
Quick note, % Blocking for AB5 (antibody, V domains shown, Hybridoma monoclonal; Same VH/VL entries as AB6; also called antibody 5; clone 5) VH: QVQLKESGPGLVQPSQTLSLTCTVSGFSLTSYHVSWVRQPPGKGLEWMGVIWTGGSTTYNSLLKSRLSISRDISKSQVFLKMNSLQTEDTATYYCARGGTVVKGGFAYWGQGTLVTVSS VL: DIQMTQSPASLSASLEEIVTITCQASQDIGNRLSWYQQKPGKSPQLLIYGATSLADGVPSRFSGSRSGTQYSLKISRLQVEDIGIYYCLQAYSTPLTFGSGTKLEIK landed at -6.12%
